Recorded values, source patent US20250163127A1.

# Test System: PD-L1 (human)
# Sequence (chain, as listed by the source): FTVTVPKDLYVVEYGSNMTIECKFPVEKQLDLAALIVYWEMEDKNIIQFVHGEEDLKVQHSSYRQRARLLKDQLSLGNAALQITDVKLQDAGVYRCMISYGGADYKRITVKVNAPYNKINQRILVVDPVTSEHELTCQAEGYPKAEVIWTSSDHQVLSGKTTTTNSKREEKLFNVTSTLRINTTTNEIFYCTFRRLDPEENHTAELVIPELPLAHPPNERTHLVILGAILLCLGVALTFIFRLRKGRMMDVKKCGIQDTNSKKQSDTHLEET
# Assay Info: flow cytometry, CHO cells stably expressing PD-L1

Binder	MFI at 33.3 nM, MFI
CD80 variant A26E/E35D/M43T/M47L/L85Q/R94Q IgV-Fc (Fc fusion) VIHVTKEVKEVATLSCGHNVSVEELEQTRIYWQKDKKMVLTMTSGDLNIWPEYKNRTIFDITNNLSIVILALRPSDEGTYECVVQKYEKDAFKQEHLAEVT	68100
CD80 variant E35D/D46E/M47V/L97Q IgV-Fc (Fc fusion) VIHVTKEVKEVATLSCGHNVSVEELAQTRIYWQKDKKMVLTMMSGEVNIWPEYKNRTIFDITNNLSIVILALRPSDEGTYECVVLKYEKDAFKREHQAEVT	19500
CD80 variant Q33L/E35D/M47I/T62N/L85Q IgV-Fc (Fc fusion) VIHVTKEVKEVATLSCGHNVSVEELAQTRIYWLKDKKMVLTMMSGDINIWPEYKNRTIFDINNNLSIVILALRPSDEGTYECVVQKYEKDAFKREHLAEVT	72600
CD80 variant Q33L/E35D/M47L/A71G/F92S IgV-Fc (Fc fusion) VIHVTKEVKEVATLSCGHNVSVEELAQTRIYWLKDKKMVLTMMSGDLNIWPEYKNRTIFDITNNLSIVILGLRPSDEGTYECVVLKYEKDASKREHLAEVT	28000
